From: the supplement of paper PMC12855868

B1: library; numbered along this chain (parent)
chain: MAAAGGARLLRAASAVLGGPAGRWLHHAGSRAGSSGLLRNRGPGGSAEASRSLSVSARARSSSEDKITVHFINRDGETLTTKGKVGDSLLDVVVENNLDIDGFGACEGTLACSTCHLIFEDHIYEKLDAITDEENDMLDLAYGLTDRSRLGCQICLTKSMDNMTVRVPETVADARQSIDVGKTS

variants of: B1; experiment: scaled log2 fold change in cell abundance, elesclomol vs control (0 = silent mean, 1 = nonsense mean) (scaled log2 ratio); higher = higher viability under elesclomol (loss of FDX1 cuproptosis function); conditions: with HEK293T FDX1 KO; elesclomol 40 nM; glucose 10 mM; 11 days;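 note: variant abundance is its share of total variant reads in each endpoint sample, from next-generation sequencing of the integrated ORF PCR-amplified out of genomic DNA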
Short version: scaled log2 fold change at least 0.5 is True, less is False.

The following variants have reported results that may help.
E77Y :: False
S61H :: True
Y124I :: False

Req: Could you tell me if the measured scaled log2 fold change of "R51W" reaches 0.5 or more?
Resp: True

Req: Could you tell me if the measured scaled log2 fold change of "R8I" reaches 0.5 or more?
Resp: False
